The reported measurements were obtained from paper PMC7272640.

TEST_TARGET: T1, His-tagged VEGFR1D2 (second extracellular domain of Vascular Endothelial Growth Factor Receptor 1) (UniProt P17948 129-226, fluorescently labeled)
T1 construct: VEGFR1 (Flt-1), second extracellular domain; The PDB entries are the cited complexes of VEGFR1D2 used for the design, not necessarily the limits of this construct
T1 sequence (P17948 129-226): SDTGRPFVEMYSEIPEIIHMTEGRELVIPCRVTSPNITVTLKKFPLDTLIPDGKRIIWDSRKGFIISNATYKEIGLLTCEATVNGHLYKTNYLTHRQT
TEST_DETAILS: MST; fixed concentration of fluorescently labeled VEGFR1D2; VGB3 titrated at increasing concentrations, initial concentration of ligand 0.25 mM
CONDITION_CONTEXT: both partners purified
Bridges are numbered along the chain shown (N, C = ends).
ASSAY_METRIC: Kd (nM)
Response body: numeric value in nM, unit text excluded.

Measured Kd of H-ECRPPDDGLC-OH (disulfide 2-10 (inferred), VEGFB, strand beta7, printed as 102-ECRP-105; VEGFB, loop connecting beta3 to beta4, printed as 62-PDDGL-66; Cys residue added to the C terminus to make the disulfide bond; also called VGB3 peptide; source: synthetic peptide (solid-phase peptide synthesis)) [VGB3 (mimetic decapeptide based on VEGFB)] : 1960
